# TESTED_ON: SOS1 catalytic domain (residues 564-1049) (Homo sapiens)
# Sequence (Q07889 564-1049): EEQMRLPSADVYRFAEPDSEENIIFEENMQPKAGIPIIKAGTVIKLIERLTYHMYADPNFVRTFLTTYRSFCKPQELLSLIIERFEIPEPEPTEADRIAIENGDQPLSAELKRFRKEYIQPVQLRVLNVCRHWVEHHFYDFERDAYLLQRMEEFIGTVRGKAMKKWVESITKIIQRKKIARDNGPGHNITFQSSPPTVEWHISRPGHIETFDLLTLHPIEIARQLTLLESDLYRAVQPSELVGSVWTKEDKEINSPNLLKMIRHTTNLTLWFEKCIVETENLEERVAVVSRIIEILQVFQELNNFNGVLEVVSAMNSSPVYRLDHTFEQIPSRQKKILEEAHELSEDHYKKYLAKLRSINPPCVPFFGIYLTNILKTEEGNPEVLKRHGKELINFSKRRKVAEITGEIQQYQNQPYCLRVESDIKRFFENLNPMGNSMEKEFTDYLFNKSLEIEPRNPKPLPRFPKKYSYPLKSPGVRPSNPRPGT
Would you kindly list Kd for each of these compounds?

Below, each entry is followed by its recorded Kd result.
C[C@@H](Nc1nc(Cl)nc2cc(C(=O)N3CCOCC3)[nH]c12)c1cc(N)cc(C(F)(F)F)c1 [Example 51] :: > 400 nM
C[C@@H](Nc1ncnn2cc(C(=O)N3CC4(CN(C)C4)C3)cc12)c1cccc(C(F)F)c1F [Example 70] :: ≤ 400 nM
C[C@@H](Nc1ncnc2cc(C(=O)N3CCOCC3)sc12)c1cc(N)cc(C(F)(F)F)c1 [Example 31] :: ≤ 400 nM
C[C@@H](Nc1ccnc2cc(C3=CCNCC3)nn12)c1cc(N)cc(C(F)(F)F)c1 [Example 52] :: ≤ 400 nM

Now take the following compound into account.
input: Fill in the blank: the reported Kd of CC(=O)N1CC2(C1)CN(C(=O)c1cn3c(N[C@H](C)c4cccc(C(F)F)c4F)nccc3n1)C2 [Example 89] is ____.
output: ≤ 400 nM

---

# TESTED_ON: SOS1 nucleotide exchange of KRAS (catalytic domain of SOS1, residues 564-1049; wild-type KRAS) (Homo sapiens)
# Construct: tagless catalytic domain of SOS1 (residues 564-1049)
# TEST_DESCRIPTION: Mode of Action Assay: Inhibition of SOS1 Nucleotide Exchange Activity (TR-FRET)
# CONDITION_SET: TR-FRET signal
pIC50: −log10 of the molar value.
PARAMETER: pIC50

Example compounds with recorded pIC50:
C[C@@H](Nc1nccc2nc(C(=O)N3CC4(CN(CCF)C4)C3)cn12)c1cccc(C(F)F)c1F [Example 92] :: > 6.00
CNCc1ccccc1-c1ccc(C(C)Nc2nc(C)nn3cc(C4=CCNCC4)cc23)s1 (stereo not drawn) [Example 40] :: < 6.00

Please report pIC50 for every entry that follows.
1. C[C@@H](Nc1ncnn2cc(N3CCOCC3)cc12)c1cc(N)cc(C(F)(F)F)c1 [Example 47]
2. Cc1cn2nc(C(=O)N3CC4CCC(C3)N4C)cc2c(N[C@H](C)c2cc(N)cc(C(F)(F)F)c2)n1 [Example 78]

output:
1: < 6.00; 2: > 6.00

Batch of 3 compounds: report pIC50 for each.
1. C[C@@H](Nc1nccc2nc(C(=O)N3CCN(C4COC4)CC3)cn12)c1cccc(C(F)F)c1F [Example 87]
2. Cc1cn2nc(C(=O)N3CCN(C4COC4)CC3)cc2c(N[C@H](C)c2cc(N)cc(C(F)(F)F)c2)n1 [Example 76]
3. C[C@@H](Nc1ncnc2cc(C(=O)N3CCOCC3)sc12)c1cc(N)cc(C(F)(F)F)c1 [Example 31]

output:
> 6.00
> 6.00
< 6.00

For the 7 compounds below, give their pIC50 values.
1. C[C@@H](Nc1nc(Cl)cn2cc(C(=O)N3CCOCC3)cc12)c1cc(N)cc(C(F)(F)F)c1 [Example 102]
2. C[C@@H](Nc1nccc2nc(C(=O)N3CC4(CN(CC(F)(F)F)C4)C3)cn12)c1cccc(C(F)F)c1F [Example 91]
3. C[C@@H](Nc1ncnn2cc(C(=O)N3CC4(COC4)C3)cc12)c1cccc(C(F)F)c1F [Example 71]
4. C[C@@H](Nc1nc(Cl)nn2cc(C(=O)N3CCN(C)CC3)cc12)c1cccc(C(F)(F)F)c1 [Example 95]
5. Cc1cn2nc(C(=O)N3CCN(C)CC3)cc2c(N[C@H](C)c2cccc(C(F)(F)F)c2)n1 [Example 61]
6. C[C@@H](Nc1nc(Cl)nc2c1nc(C(=O)N1CCOCC1)n2C)c1cccc(C(F)(F)CO)c1 [Example 103]
7. C[C@@H](Nc1nc(Cl)nc2[nH]c(C(=O)N3CCOCC3)nc12)c1cccc(C(F)(F)CO)c1 [Example 73]

output:
1. < 6.00
2. > 6.00
3. > 6.00
4. < 6.00
5. < 6.00
6. > 6.00
7. > 6.00

FYI, the data here is from patent US20230148450A9.
